# method notes: mn = molality of the nth substance listed, in mol/kg
# measurement context: 303.15 K; 101 kPa; Liquid; Vibrating tube method; m1 = 0.7
# maps each entry to its mass density
Report as a plain number; the unit kg/m3 is understood.

>  <compound>
O=P(O)(O)O [phosphoric acid] + O

>  <unit abbrev>
kg/m3

>  <mass density>
1029.49

$$$$
>  <compound>
O=P([O-])([O-])O.[K+].[K+] [dipotassium hydrogen phosphate] + O

>  <unit abbrev>
kg/m3

>  <mass density>
1103.01

$$$$
>  <compound>
O=P([O-])([O-])O.[Na+].[Na+] [disodium hydrogen phosphate] + O

>  <unit abbrev>
kg/m3

>  <mass density>
1095.37

$$$$
>  <compound>
O=P([O-])(O)O.[Li+] [lithium dihydrogen phosphate] + O

>  <unit abbrev>
kg/m3

>  <mass density>
1048.1

$$$$
>  <compound>
O=P([O-])([O-])[O-].[K+].[K+].[K+] [tripotassium phosphate] + O

>  <unit abbrev>
kg/m3

>  <mass density>
1145.57

$$$$
>  <compound>
O=P([O-])([O-])[O-].[Na+].[Na+].[Na+] [trisodium phosphate] + O

>  <unit abbrev>
kg/m3

>  <mass density>
1129.51

$$$$
>  <compound>
O=P([O-])(O)O.[K+] [monopotassium phosphate] + O

>  <unit abbrev>
kg/m3

>  <mass density>
1065.65

$$$$

--- query ---
Q: Find the recorded mass density belonging to O=P([O-])(O)O.[Na+] [sodium dihydrogen phosphate] + O and report it.
Ans: 1060.86

----------
# method notes: refractive index (Na D-line) (dimensionless); mn = molality of the nth substance listed, in mol/kg
# measurement context: 308.15 K; 101 kPa; Liquid; Standard Abbe refractometry; m1 = 0.5
Numbers after ± are expanded uncertainties.
Below, each of the compounds is paired with its reported refractive index value.

Examples with their reported refractive index follow.
>  <compound>
O=P([O-])([O-])[O-].[Na+].[Na+].[Na+] [trisodium phosphate] + O

>  <refractive index>
1.35 ± 0.0004

$$$$
>  <compound>
O=P([O-])([O-])O.[K+].[K+] [dipotassium hydrogen phosphate] + O

>  <refractive index>
1.3445 ± 0.0004

$$$$

Q: Bench note: what refractive index did O=P([O-])(O)O.[Li+] [lithium dihydrogen phosphate] + O show?
Ans: 1.3387 ± 0.0004

Q: What refractive index value was documented for this compound, O=P([O-])([O-])[O-].[K+].[K+].[K+] [tripotassium phosphate] + O ?
Ans: 1.3502 ± 0.0004

Q: // returns reported refractive index for input O=P(O)(O)O [phosphoric acid] + O
Ans: 1.3356 ± 0.0004

Q: Form field: reported refractive index of O=P([O-])([O-])O.[Na+].[Na+] [disodium hydrogen phosphate] + O
Ans: 1.3448 ± 0.0004

Q: Using the record for O=P([O-])(O)O.[K+] [monopotassium phosphate] + O , report its refractive index.
Ans: 1.3392 ± 0.0004

Q: Any idea what its refractive index is? The compound is O=P([O-])(O)O.[Na+] [sodium dihydrogen phosphate] + O
Ans: 1.3398 ± 0.0004

----------
# method notes: mn = molality of the nth substance listed, in mol/kg
# measurement context: 303.15 K; 101 kPa; Liquid; Vibrating tube method; m1 = 0.9
Measured mass density, listed per entry.
Just the number in kg/m3, nothing appended.

Consider the worked cases shown below.
>  <compound>
O=P([O-])(O)O.[Na+] [sodium dihydrogen phosphate] + O

>  <unit abbrev>
kg/m3

>  <mass density>
1079.48

$$$$
>  <compound>
O=P([O-])([O-])O.[Na+].[Na+] [disodium hydrogen phosphate] + O

>  <unit abbrev>
kg/m3

>  <mass density>
1128.52

$$$$

Q: Find the recorded mass density belonging to O=P([O-])([O-])O.[K+].[K+] [dipotassium hydrogen phosphate] + O and report it.
Ans: 1136.16

----------
# method notes: refractive index (Na D-line) (dimensionless); mn = molality of the nth substance listed, in mol/kg
# measurement context: 308.15 K; 101 kPa; Liquid; Standard Abbe refractometry; m1 = 0.7
Listing of recorded refractive index by entry.
I'd appreciate a reply containing only the number, no unit.

Here are 5 compounds together with their reported answers.
>  <compound>
O=P([O-])([O-])[O-].[Na+].[Na+].[Na+] [trisodium phosphate] + O

>  <refractive index>
1.3574

$$$$
>  <compound>
O=P([O-])(O)O.[Na+] [sodium dihydrogen phosphate] + O

>  <refractive index>
1.3428

$$$$
>  <compound>
O=P([O-])([O-])O.[Na+].[Na+] [disodium hydrogen phosphate] + O

>  <refractive index>
1.3499

$$$$
>  <compound>
O=P([O-])(O)O.[K+] [monopotassium phosphate] + O

>  <refractive index>
1.3423

$$$$
>  <compound>
O=P([O-])([O-])[O-].[K+].[K+].[K+] [tripotassium phosphate] + O

>  <refractive index>
1.3581

$$$$

Q: Item under review: O=P([O-])([O-])O.[K+].[K+] [dipotassium hydrogen phosphate] + O . Reported refractive index?
Ans: 1.3495

Q: Look up refractive index: O=P([O-])(O)O.[Li+] [lithium dihydrogen phosphate] + O
Ans: 1.3414

Q: // returns reported refractive index for input O=P(O)(O)O [phosphoric acid] + O
Ans: 1.3371

----------
Reported mass density values for a set of compounds
# method notes: mn = molality of the nth substance listed, in mol/kg
# measurement context: 298.15 K; 101 kPa; Liquid; Vibrating tube method; m1 = 0.9
Numbers only here, please. The scale is kg/m3.

Q: For the compound O=P(O)(O)O [phosphoric acid] + O , what mass density is on record?
Ans: 1040.62

Q: Data request, read-out mass density, for O=P([O-])([O-])[O-].[K+].[K+].[K+] [tripotassium phosphate] + O
Ans: 1191.53

Q: Find the recorded mass density belonging to O=P([O-])([O-])O.[K+].[K+] [dipotassium hydrogen phosphate] + O and report it.
Ans: 1135.65

----------
# method notes: mn = molality of the nth substance listed, in mol/kg
# measurement context: 308.15 K; 101 kPa; Liquid; Sing-around technique in a fixed-path interferometer; m1 = 0.5
speed of sound listing for selected compounds.
State just the number; it will be interpreted in m/s.

Worked examples, 3 compounds total:
>  <compound>
O=P([O-])([O-])[O-].[Na+].[Na+].[Na+] [trisodium phosphate] + O

>  <speed of sound, m/s>
1628.3

$$$$
>  <compound>
O=P([O-])(O)O.[K+] [monopotassium phosphate] + O

>  <speed of sound, m/s>
1563.1

$$$$
>  <compound>
O=P([O-])([O-])O.[Na+].[Na+] [disodium hydrogen phosphate] + O

>  <speed of sound, m/s>
1588.7

$$$$

# ---- query compound ----
Q: Fill in: speed of sound of O=P([O-])(O)O.[Na+] [sodium dihydrogen phosphate] + O is ___
Ans: 1567.3

----------
# method notes: mn = molality of the nth substance listed, in mol/kg
# measurement context: 298.15 K; 101 kPa; Liquid; Vibrating tube method; m1 = 0.5
The following molecules are listed with their measured mass density values.
State the answer as a number, implicitly in kg/m3.

Solved cases (5 shown):
>  <molecule>
O=P([O-])(O)O.[Li+] [lithium dihydrogen phosphate] + O

>  <mass density (kg/m3)>
1033.8

$$$$
>  <molecule>
O=P([O-])([O-])[O-].[Na+].[Na+].[Na+] [trisodium phosphate] + O

>  <mass density (kg/m3)>
1091.06

$$$$
>  <molecule>
O=P([O-])(O)O.[K+] [monopotassium phosphate] + O

>  <mass density (kg/m3)>
1046.68

$$$$
>  <molecule>
O=P([O-])([O-])O.[K+].[K+] [dipotassium hydrogen phosphate] + O

>  <mass density (kg/m3)>
1072.35

$$$$
>  <molecule>
O=P([O-])([O-])O.[Na+].[Na+] [disodium hydrogen phosphate] + O

>  <mass density (kg/m3)>
1066.76

$$$$

Now for the molecule whose mass density we want.
Q: What measured mass density goes with O=P(O)(O)O [phosphoric acid] + O ?
Ans: 1021.09

----------
# method notes: refractive index (Na D-line) (dimensionless); mn = molality of the nth substance listed, in mol/kg
# measurement context: 308.15 K; 101 kPa; Liquid; Standard Abbe refractometry; m1 = 0.3
endpoint label: refractive index
Just the number, please, no unit after it.

Q: I would be grateful if you could share the reported refractive index for O=P([O-])([O-])O.[Na+].[Na+] [disodium hydrogen phosphate] + O .
Ans: 1.3398

Q: Sample O=P([O-])([O-])O.[K+].[K+] [dipotassium hydrogen phosphate] + O — what was its refractive index?
Ans: 1.3392

Q: Could you share which refractive index value was measured for O=P([O-])([O-])[O-].[Na+].[Na+].[Na+] [trisodium phosphate] + O ?
Ans: 1.3425
